test: melting temperature; fluorescence melt of hairpins on a sequencing array, two-state fit, raised by 9.35 °C to match UV melts; settings: sodium 0.088 M
Parameter: Tm (°C)

>>> numeric_result("GATCTGTACTCAGATC ((((((....))))))")
50.2
>>> numeric_result("ATCGGGAAACCGAT (((((....)))))")
50.2
>>> numeric_result("GATATCCGAAAGGAGATC (((.(((....))).)))")
49.9
>>> numeric_result("GATCATTGCATGATC ((((((...))))))")
50.4
>>> numeric_result("GTACTGGGAAACCGGTAC ((((.((....)).))))")
50.1

----------
test: folding enthalpy; higher = less favourable; fluorescence melt of hairpins on a sequencing array, two-state fit; conditions: sodium 0.088 M
Parameter: folding enthalpy (kcal/mol)

>>> numeric_result("GTGTCGGGAAACTGGCAC (((.(.(....).).)))")
-29.2
>>> numeric_result("GCTAAGGGAAACCTTGGC ((.((((....)))).))")
-29.4
>>> numeric_result("GGCCTCGGAAACGAAGCC (((.(((....))).)))")
-30.8

----------
test: melting temperature; fluorescence melt of hairpins on a sequencing array, two-state fit, raised by 9.35 °C to match UV melts; details: sodium 0.088 M
Listed here: items and their measured Tm.
Parameter: Tm

>>> result("GATCCGTCTGCGGATC ((((((....))))))")
"61.1 °C"
>>> result("GCTTGTTCGAAAGAAAGC (((..(((....))))))")
"26.5 °C"
>>> result("GTGTACGCGAAAGCGCAC (((..(((....))))))")
"48.9 °C"
>>> result("GACCCCCGAAAGGGTGTC (((.(((....))).)))")
"51.8 °C"
>>> result("GCAAGGTCGAAAGACTGC (((..(((....))))))")
"40.5 °C"
>>> result("GTTGCGGGAAACTGCAAC (((((.(....).)))))")
"56.2 °C"
>>> result("GGCCGCGGAAACACGGCC (((((.(....).)))))")
"66.1 °C"
>>> result("GTATGTGGAAACATGTAC (((..((....))..)))")
"30.9 °C"
>>> result("GGACACGAAAGTGTCTCC ((((((....)))..)))")
"53.8 °C"
>>> result("ATTGGGAAACCAAT (((((....)))))")
"40.3 °C"
>>> result("GCTACGCGAAAGCGCTGC ((..(((....)))..))")
"43.5 °C"
>>> result("GCACTGACGAAAGTCTGC (((..(((....))))))")
"38.1 °C"
>>> result("GGCCAGGGAAACCCGACC ((.(.((....)).).))")
"32.5 °C"
>>> result("GGGAGGGGAAACTCTCCC (((((.(....).)))))")
"52 °C"
>>> result("GCTGAGGGAAACCTCAGC (((((((....)))))))")
"69.2 °C"
>>> result("GTCCGGACGAAAGTCGAC (((..(((....))))))")
"35.5 °C"
>>> result("GGTAGCCGAAAGGCCACC (((.(((....))).)))")
"52.2 °C"
>>> result("GCAGGTCCGAAAGGATGC (((..(((....))))))")
"37.7 °C"
>>> result("GAACTACGAAAGTACTTC (((.(((....))).)))")
"25.9 °C"
>>> result("GATCTAACGTTAGATC ((((((....))))))")
"48.3 °C"
>>> result("GATCTCGGAGGAGATC ((((((....))))))")
"55.7 °C"
>>> result("CGTTGACGGAAACGTACG (((..(((....))))))")
"43.2 °C"
>>> result("GATCGCTCTGGCGATC ((((((....))))))")
"69.1 °C"
>>> result("CTCTCGAAAGAGAG (((((....)))))")
"53.3 °C"
>>> result("CGGTAGCGGAAACGCCCG (((..(((....))))))")
"48.7 °C"
>>> result("GAGACCGAAAGGTTCCTC ((((((....)))..)))")
"32 °C"
>>> result("GATAGACGAAAGTCCATC (((.(((....))).)))")
"35.1 °C"
>>> result("GCGTTAGGACGC ((((....))))")
"52.9 °C"
>>> result("GATCCTAACGAGGATC ((((((....))))))")
"50.6 °C"
>>> result("GATCGCGTGGGCGATC ((((((....))))))")
"68.2 °C"
>>> result("GGCCATCGAAAGATAGCC (((.(((....))).)))")
"48.3 °C"
>>> result("GATCCATTCTTGGATC ((((((....))))))")
"54 °C"
>>> result("GATTGGGGAAACCTAATC ((((.((....)).))))")
"37.5 °C"
>>> result("GACAGCGAAAGCTACGTC ((((((....)))..)))")
"39.8 °C"
>>> result("GGGGGCGGAAACGCCTCC ((.((((....)))).))")
"66.7 °C"
>>> result("GGAATGAAAATTCC (((((....)))))")
"44.3 °C"
>>> result("GATCTTCCTAAAGATC ((((((....))))))")
"43.7 °C"
>>> result("GTTGCCGGAAACAGCAAC (((((.(....).)))))")
"46.9 °C"
>>> result("GTATGTACGAAAGTATAC (((..(((....))))))")
"31 °C"
